Data provenance: the Human Domainome abundance scans (Beltran et al. 2025)

B1: Zinc finger homeobox protein 3, residues 2244 to 2299; numbered along this chain, Q15911 (parent)
chain: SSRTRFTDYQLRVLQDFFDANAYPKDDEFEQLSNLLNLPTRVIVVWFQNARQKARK

Variants of: B1
Assay: abundance fitness (aPCA) (normalised: wild type 0, dead -1); higher = more abundant; growth selection in yeast, the domain comes from the species named
Details: Homo sapiens
measurementLabel: abundance fitness
Answers are plain numbers.

Here's what some known entries look like.
• SSRTRFTDYQLQVLQDFFDANAYPKDDEFEQLSNLLNLPTRVIVVWFQNARQKARK = 0.045
• SSRTRFTDYQLRVLQDFFDPNAYPKDDEFEQLSNLLNLPTRVIVVWFQNARQKARK = -0.543
• SSRTRFTDYQLRVLQYFFDANAYPKDDEFEQLSNLLNLPTRVIVVWFQNARQKARK = -0.797
• SSRTRFTDYQLRVLQDFKDANAYPKDDEFEQLSNLLNLPTRVIVVWFQNARQKARK = -0.625
• SSRTRFTDYQLRVLQDFFDANAYPKDDEIEQLSNLLNLPTRVIVVWFQNARQKARK = 0.071
• SSRTRFTDYQLRVLRDFFDANAYPKDDEFEQLSNLLNLPTRVIVVWFQNARQKARK = -0.213
• SSRTRMTDYQLRVLQDFFDANAYPKDDEFEQLSNLLNLPTRVIVVWFQNARQKARK = 0.094
• SSRTRFTDYQLRVLSDFFDANAYPKDDEFEQLSNLLNLPTRVIVVWFQNARQKARK = -0.22
• SSRTRFTDYQLRFLQDFFDANAYPKDDEFEQLSNLLNLPTRVIVVWFQNARQKARK = -0.291
• SSMTRFTDYQLRVLQDFFDANAYPKDDEFEQLSNLLNLPTRVIVVWFQNARQKARK = 0.308

// batch mode: one abundance fitness value per listed entry
1. SSRTRFTDYQLRYLQDFFDANAYPKDDEFEQLSNLLNLPTRVIVVWFQNARQKARK
2. SSRTRFTDYQLRVLQDFFDANAYHKDDEFEQLSNLLNLPTRVIVVWFQNARQKARK
3. SSRTRFTDYQLRVLQDFFDANAYPKDDEFEQLINLLNLPTRVIVVWFQNARQKARK
4. DSRTRFTDYQLRVLQDFFDANAYPKDDEFEQLSNLLNLPTRVIVVWFQNARQKARK
5. SSRTRFTDYQLAVLQDFFDANAYPKDDEFEQLSNLLNLPTRVIVVWFQNARQKARK
6. NSRTRFTDYQLRVLQDFFDANAYPKDDEFEQLSNLLNLPTRVIVVWFQNARQKARK
7. SSRTRFTDYQLRVLQDFVDANAYPKDDEFEQLSNLLNLPTRVIVVWFQNARQKARK

Found:
1. 0.003
2. -0.927
3. -1.08
4. 0.137
5. -0.455
6. 0.158
7. -0.435
